Reference source: PubChem BioAssay AID1645838

- PROTOCOL_DESCRIPTION: supercomplex reporter luminescence per Hoechst cell count – Hoechst nuclei count (AID 1645838);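 note: control cybrid cells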
- EXPERIMENTAL_PARAMETERS: Cells, luminescence/Hoechst cell count ratio, measured here: cell number, Hoechst nuclei count, library stock concentration (final well concentration not given) 400 uM
In all, about 2,000 compounds went through this assay and about 100 (5%) were called active. Many of the other results were omitted from the sample, so actives are more common in it than they were.

COMPOUND: CCCCCC(O)CCC1C(O)C[C@H]2Cc3c(cccc3OCC(=O)O)C[C@@H]12 (some centres undefined)
cell count: 5860
//
COMPOUND: NC(N)=NCCCC(NC(=O)COCC(c1ccccc1)c1ccccc1)C(=O)O (centres undefined)
cell count: 5210
//
COMPOUND: COC1C[C@@H]2CCC(C)[C@@](O)(O2)C(=O)C(=O)N2CCCC[C@@H]2C(=O)O[C@@H](C(C)CC2CCC(n3cnnn3)C(OC)C2)CC(=O)C(C)C=C(C)C(O)C(OC)C(=O)C(C)CC(C)C=CC=CC=C1C (some centres undefined)
cell count: 4360
//
COMPOUND: NC(=O)c1cnc(NC2CCCCC2N)nc1Nc1cccc(-n2nccn2)c1 (centres undefined)
cell count: 4840
//
COMPOUND: Cn1cnc2c(F)c(Nc3ccc(Br)cc3Cl)c(C(=O)NOCCO)cc21
cell count: 3780
//
COMPOUND: O=C(Nc1cccc(Nc2ncc(Br)c(NCCc3cnc[nH]3)n2)c1)N1CCCC1
cell count: 4520
//
COMPOUND: Cc1nc(C(=O)N2CCCC2Cc2nnc(-c3ccccc3)o2)c(-c2ccccc2F)s1 (centres undefined)
cell count: 5950
//
COMPOUND: CC(N)c1ccc(C(=O)Nc2ccnc3[nH]ccc23)cc1 (centres undefined)
cell count: 5420
//
COMPOUND: O=C(Oc1nsnc1N1CCCCC1)N1CCOCC1
cell count: 4960
//
COMPOUND: CC(CSC(=O)c1ccccc1)C(=O)N1CC(Sc2ccccc2)CC1C(=O)O (centres undefined)
cell count: 5990
//
COMPOUND: Cn1cncc1[C@@](N)(c1ccc(Cl)cc1)c1ccc2c(c1)c(-c1cccc(Cl)c1)cc(=O)n2C
cell count: 3990
//
COMPOUND: COc1cc(N2CCC(C(N)=O)CC2)ccc1Nc1nc(N)c(Cl)c(Nc2ccccc2S(=O)(=O)C(C)C)n1
cell count: 4660
//
COMPOUND: CCC(C)(C)C(=O)OC1CC(C)C=C2C=CC(C)C(CCC3CC(O)CC(=O)O3)[C@H]21 (some centres undefined)
cell count: 6140
//
COMPOUND: CC(Cc1cc2c(c(C(N)=O)c1)N(CCCO)CC2)NCCOc1ccccc1OCC(F)(F)F (centres undefined)
cell count: 5330
//
COMPOUND: COc1cc(C(=O)N2CCC(N3CCN(C)CC3)CC2)ccc1Nc1ncc2c(n1)N(C)c1ccccc1C(=O)N2C
cell count: 4880
//
COMPOUND: COc1cc(NS(C)(=O)=O)ccc1Nc1c2ccccc2nc2ccccc12
cell count: 2280
//
COMPOUND: Oc1ccc(Nc2nc(-c3ccc(Cl)cc3)cs2)cc1
cell count: 5570
//
COMPOUND: CC(C)c1ccc(-c2cc(=O)c3ccccc3o2)cc1
cell count: 5660
//
COMPOUND: Cc1nc(Nc2ncc(C(=O)Nc3c(C)cccc3Cl)s2)cc(N2CCN(CCO)CC2)n1
cell count: 1990
